molecular target: PD-1 (human, UniProt Q15116 25-167, limits assumed); assay: HTRF
Sequence (Q15116 25-167 limits assumed): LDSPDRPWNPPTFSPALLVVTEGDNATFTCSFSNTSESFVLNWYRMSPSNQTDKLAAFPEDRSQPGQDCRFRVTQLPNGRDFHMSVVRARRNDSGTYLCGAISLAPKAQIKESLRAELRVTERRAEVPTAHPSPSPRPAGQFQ
Catalogue of PD1 Binding (HTRF signal) readings, one per entry.

State the recorded PD1 Binding (HTRF signal) for this entry: PD1-IL2-R02-B05 (scFv) scFv: QVQLVQSGAEVKKPGASVKVSCKASGYTFTNYYIHWVRQAPGQGLEWMGIINPRAGYTSYALKFQGRVTMTRDTSTSTVYMELSSLRSEDTAVYYCAGGWLDWGQGTLVTVSSASGGGGSGGGGSGGGGSHASDIQMTQSPSSLSASVGDRVTITCRASQSISSWLAWYQQKPGKAPKLLIYAASSLQSGVPSRFSGSGSGTDFTLTISSLQPEDFATYYCQQSFTMPITFGQGTRLEIK 1660
